Test system: interferon stimulated genes (ISGs) in THP1 Dual cells
ASSAY_TEXT: RT-qPCR assay of interferon stimulated gene expression
Format: cell-based, human
COND: substance alone, 24 hours, normalized to GAPDH, unstimulated control = 1
Text: Example D is a cell based assay that measures the increase in the expression of interferon stimulated genes (ISG) by RT-qPCR that are induced by TREX1 inhibitors when THP1 Dual™ cells are transfected with double-stranded DNA. […] The RT-qPCR assay was used to assess the ability of TREX1 inhibitors to enhance the expression of interferon stimulated genes (ISGs) in cells transfected with double-stranded DNA. […] Total RNA was quantified using a Nanodrop spectrophotometer. […]

{"COMPOUND": "N[C@@H]1C[C@H]2C(=O)N([C@H](CCC(=O)O)C(=O)NCc3ccc(Cl)c(Cl)c3)CCC(CCc3ccccc3)N2C1 (stereo partly shown) [Example 14B]", "IFI44 expression": 54}
{"COMPOUND": "NC(=O)CC[C@H](C(=O)NCc1ccc(Cl)c(Cl)c1)N1CCC(CCc2ccccc2)N2C[C@H](N)C[C@H]2C1=O (stereo partly shown)", "IFI44 expression": 14}
{"COMPOUND": "N[C@@H]1C[C@H]2C(=O)N([C@H](CCc3nnn[nH]3)C(=O)NCc3ccc(Cl)c(Cl)c3)CCC(CCc3ccccc3)N2C1 (stereo partly shown)", "IFI44 expression": 20}
{"COMPOUND": "N[C@@H]1C[C@H]2C(=O)N([C@H](CC(=O)O)C(=O)NCc3ccc(Cl)c(Cl)c3)CCC(CCc3ccccc3)N2C1 (stereo partly shown)", "IFI44 expression": 20}

====

TARGET_ENTITY: UniProt Q91XB0

{"COMPOUND": "N[C@@H]1C[C@H]2C(=O)N([C@H](CCC(=O)O)C(=O)NCc3ccc(C(F)(F)F)cc3)CCC(CCc3ccccc3)N2C1 (single isomer, unassigned) [Example 2A]", "IC50": "10 to 100 µM"}
{"COMPOUND": "CC(C)C[C@H](C(=O)NCc1ccc(Cl)c(Cl)c1)N1CCC(Cc2ccccc2)N2C[C@H](N)C[C@H]2C1=O (stereo partly drawn)", "IC50": "1 to 9.99 µM"}
{"COMPOUND": "CC(C)C[C@H](C(=O)NCc1ccc(Cl)c(Cl)c1)N1CCC(CSc2ccccc2)N2C[C@H](N)C[C@H]2C1=O (stereo partly drawn)", "IC50": "< 1 µM"}
{"COMPOUND": "CC(C)C[C@H](C(=O)N(C)Cc1ccc(C(F)(F)F)cc1)N1CCC(CCc2ccccc2)N2C[C@H](N)C[C@H]2C1=O (stereo partly drawn)", "IC50": "1 to 9.99 µM"}
{"COMPOUND": "CC(C)C[C@H](C(=O)N[C@H](C)c1ccccc1)N1CCC(CCc2ccccc2)N2C[C@H](N)C[C@H]2C1=O (stereo partly drawn)", "IC50": "10 to 100 µM"}
{"COMPOUND": "CC(C)C[C@H](C(=O)NCc1ccc(Cl)c(Cl)c1)N1CCC(COc2ccccc2)N2C[C@H](N)C[C@H]2C1=O (stereo partly drawn)", "IC50": "1 to 9.99 µM"}

====

TARGET_ENTITY: human TREX1 (Homo sapiens (Human))
Sequence (Q9NSU2 1-242): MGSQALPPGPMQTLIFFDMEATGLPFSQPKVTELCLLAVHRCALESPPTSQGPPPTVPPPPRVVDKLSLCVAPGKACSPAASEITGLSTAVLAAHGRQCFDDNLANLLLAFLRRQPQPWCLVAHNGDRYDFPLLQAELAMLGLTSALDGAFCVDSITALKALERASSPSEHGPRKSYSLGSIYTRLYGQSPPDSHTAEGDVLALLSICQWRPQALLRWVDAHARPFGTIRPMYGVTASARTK
pIC50: −log10 of the molar value.
Each item that follows carries a reported pIC50.

{"COMPOUND": "N[C@@H]1C[C@H]2C(=O)N([C@H](CCc3nnn[nH]3)C(=O)NCc3ccc(Cl)c(Cl)c3)CCC(CCc3ccccc3)N2C1 (stereo partly drawn)", "pIC50": "> 6.00"}
{"COMPOUND": "N[C@@H]1C[C@H]2C(=O)N([C@H](CCc3nsc(=O)[nH]3)C(=O)NCc3ccc(Cl)c(Cl)c3)CCC(CCc3ccccc3)N2C1 (stereo partly drawn)", "pIC50": "> 6.00"}
{"COMPOUND": "CC(C)C[C@H](C(=O)NCc1cccc(Cl)c1)N1CCC(CCc2ccccc2)N2C[C@H](N)C[C@H]2C1=O (stereo partly drawn)", "pIC50": "> 6.00"}
{"COMPOUND": "CC(C)C[C@H](C(=O)NCc1ccc(Cl)c(Cl)c1)N1CCC(CSc2ccccc2)N2C[C@H](N)C[C@H]2C1=O (stereo partly drawn)", "pIC50": "> 6.00"}
{"COMPOUND": "CC(C)C[C@H](C(=O)N[C@H](C)c1ccccc1)N1CCC(CCc2ccccc2)N2C[C@H](N)C[C@H]2C1=O (stereo partly drawn)", "pIC50": "4.00 to 5.00"}
{"COMPOUND": "N[C@@H]1C[C@H]2C(=O)N([C@H](CCC(=O)O)C(=O)NCc3ccc(C(F)(F)F)cc3)CCC(CCc3ccccc3)N2C1 (single isomer, unassigned) [Example 2B]", "pIC50": "> 6.00"}

====

TARGET_ENTITY: murine TREX1 (Mus musculus (Mouse))
Sequence (Q91XB0 1-242): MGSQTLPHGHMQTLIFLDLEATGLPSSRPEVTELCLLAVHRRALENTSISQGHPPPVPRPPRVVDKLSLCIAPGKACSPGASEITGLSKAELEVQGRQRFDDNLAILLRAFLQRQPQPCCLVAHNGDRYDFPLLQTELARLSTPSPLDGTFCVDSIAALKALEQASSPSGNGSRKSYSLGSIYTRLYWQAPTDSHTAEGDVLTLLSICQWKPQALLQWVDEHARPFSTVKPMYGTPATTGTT

{"MOLECULE": "CC(C)C[C@H](C(=O)NCc1ccc(Cl)c(Cl)c1)N1CCC(CCc2ccc(Cl)cc2)N2C[C@H](N)C[C@H]2C1=O (stereo partly shown)", "IC50": "1 to 9.99 µM"}
{"MOLECULE": "CC(C)C[C@H](C(=O)NCc1cnccn1)N1CCC(CCc2ccccc2)N2C[C@H](N)C[C@H]2C1=O (stereo partly shown)", "IC50": "10 to 100 µM"}
{"MOLECULE": "CC(C)C[C@H](C(=O)NS(=O)(=O)c1ccc(Cl)c(Cl)c1)N1CCC(CCc2ccccc2)N2C[C@H](N)C[C@H]2C1=O (stereo partly shown)", "IC50": "< 1 µM"}
{"MOLECULE": "CC(C)C[C@H](C(=O)NCc1ccc(Cl)cc1)N1CCC(CCc2ccccc2)N2C[C@H](N)C[C@H]2C1=O (stereo partly shown)", "IC50": "1 to 9.99 µM"}

====

System: interferon stimulated genes (ISGs) in THP1 Dual cells
ASSAY_TEXT: RT-qPCR assay of interferon stimulated gene expression
Type: cell-based, human
COND: substance alone, 24 hours, normalized to GAPDH, unstimulated control = 1
Text: Example D is a cell based assay that measures the increase in the expression of interferon stimulated genes (ISG) by RT-qPCR that are induced by TREX1 inhibitors when THP1 Dual™ cells are transfected with double-stranded DNA. […] The RT-qPCR assay was used to assess the ability of TREX1 inhibitors to enhance the expression of interferon stimulated genes (ISGs) in cells transfected with double-stranded DNA. […] Total RNA was quantified using a Nanodrop spectrophotometer. […]
ASSAY_READOUT: IFN-β expression

{"COMPOUND": "NC(=O)CC[C@H](C(=O)NCc1ccc(Cl)c(Cl)c1)N1CCC(CCc2ccccc2)N2C[C@H](N)C[C@H]2C1=O (stereo partly shown) [Example 16]", "RESULT": 6}
{"COMPOUND": "N[C@@H]1C[C@H]2C(=O)N([C@H](CCc3nnn[nH]3)C(=O)NCc3ccc(Cl)c(Cl)c3)CCC(CCc3ccccc3)N2C1 (stereo partly shown) [Example 36]", "RESULT": 3}
{"COMPOUND": "N[C@@H]1C[C@H]2C(=O)N([C@H](CCC(=O)O)C(=O)NCc3ccc(Cl)c(Cl)c3)CCC(CCc3ccccc3)N2C1 (stereo partly shown) [Example 14B]", "RESULT": 7}
{"COMPOUND": "N[C@@H]1C[C@H]2C(=O)N([C@H](CC(=O)O)C(=O)NCc3ccc(Cl)c(Cl)c3)CCC(CCc3ccccc3)N2C1 (stereo partly shown) [Example 15]", "RESULT": 5}

====

Each item that follows carries a reported ΔTm at 100 µM.
TARGET_ENTITY: cleaved mouse TREX1 (Mus musculus (Mouse), UniProt Q91XB0)
ASSAY_TEXT: TREX1 Thermal Shift Binding Assay (mouse)
COND: PBS, 100 μM compound, 5 μM TREX1; read-out: Thermal shift cleaved mouse TREX1, (ΔTm ° C.) PBS
ASSAY_READOUT: ΔTm at 100 µM

{"MOLECULE": "N[C@@H]1C[C@H]2C(=O)N([C@H](CO)C(=O)NCc3ccc(Cl)c(Cl)c3)CCC(CCc3ccccc3)N2C1 (some centres unmarked) [Example 3]", "RESULT": "4 to 8 °C"}
{"MOLECULE": "CC(C)C[C@H](C(=O)NCc1ccc(Cl)c(Cl)c1)N1CCC(CCc2ccccc2)N2C[C@H](N)C[C@H]2C1=O (some centres unmarked) [Example 1]", "RESULT": "4 to 8 °C"}
{"MOLECULE": "N[C@@H]1C[C@H]2C(=O)N([C@H](CCC(=O)O)C(=O)NCc3ccc(Cl)c(Cl)c3)CCC(CCc3ccccc3)N2C1 (some centres unmarked) [Example 14B]", "RESULT": "> 8 °C"}
{"MOLECULE": "N[C@@H]1C[C@H]2C(=O)N([C@H](CCC(=O)O)C(=O)NCc3ccc(C(F)(F)F)cc3)CCC(CCc3ccccc3)N2C1 (single isomer, unassigned) [Example 2B]", "RESULT": "4 to 8 °C"}
{"MOLECULE": "N[C@@H]1C[C@H]2C(=O)N([C@H](Cc3ccc(O)cc3)C(=O)NCc3ccc(Cl)c(Cl)c3)CCC(CCc3ccccc3)N2C1 (some centres unmarked) [Example 4]", "RESULT": "4 to 8 °C"}
